Experiment: Incorporation into clots induced in a rat model (rat inferior vena cava model)
Format: in vivo, rat (Male Wistar)
Details: Fresh Clots
*1 amine or outer side, *2 acyl side, *3 side chain or, on linkers, in order; H or OH if unused. Glutaryl = O=C(CCCC(=O)[*:2])[*:1]
For each record, write down the corresponding Clot/liver.
Number, no unit, nothing else.

Lab book: Clot/liver of Pn216-CO(CH2)3CO-NQEQVSPYTLLKG-NH2 ({Pn216-Glutaryl}-NQEQVSPYTLLKG-NH2; also: 99mTc complex) [^99mTc-Cmpd 39] noted as 31

Lab book: Clot/liver of Z-NQEQVSP(I-Y)TLLKG-Pn216 [^99mTc-Cmpd 24] noted as 11

Lab book: Clot/liver of Ac-NQEQVSPLTLLKG-Pn216 (also: 99mTc complex) [^99mTc-Cmpd 19] noted as 17

Lab book: Clot/liver of Ac-NQEQVSP(pBr-F)TLLKG-Pn216 [^99mTc-Cmpd 21] noted as 13

Lab book: Clot/liver of Ac-NQEQVSPYTLL(D-K)G-Pn216 [^99mTc-Cmpd 28] noted as 35

Lab book: Clot/liver of Ac-NQEQVSPYTLLKG-Pn44 (also: 99mTc complex) [^99mTc-Cmpd 3] noted as 6

Lab book: Clot/liver of Ac-(D-N)QEQVSP(D-Y)TLL(D-K)G-Pn216 [^99mTc-Cmpd 32] noted as 27

Lab book: Clot/liver of Ac-NQEQVG-Pn44 [^99mTc-Cmpd 17] noted as 5

Lab book: Clot/liver of Ac-NQEQVSP(D-Y)TLL(D-K)G-Pn216 [^99mTc-Cmpd 29] noted as 44
